test: Biodistribution of 177Lu-labeled αMSH analogues in mice bearing SK-MEL-1 human melanoma; settings: male, NRG (NOD.Cg-Rag1tm1Mom Il2rgtm1Wjl/SzJ), mouse, kidneys, total radioactivity
measured-attribute: tissue uptake at 4 h

[[record]]
molecule = "CCCC[C@H](NC(=O)CN1CCC(NC(=O)[C@H](CCCCNC(=O)CN2CCN(CC(=O)O)CCN(CC(=O)O)CCN(CC(=O)O)CC2)NC(=O)CNC(=O)CCCc2ccc(I)cc2)CC1)C(=O)N[C@H]1CC(=O)NCCCC[C@@H](C(N)=O)N(C)C(=O)[C@H](Cc2c[nH]c3ccccc23)NC(=O)[C@H](CCCNC(=N)N)N(C)C(=O)[C@@H](Cc2ccccc2)NC(=O)[C@H](Cc2c[nH]cn2)NC1=O [^177Lu-labeled CCZ01148, metal not drawn]"
measured_attribute = "tissue uptake at 4 h"
observed_value = "9.78 %ID/g"

[[record]]
molecule = "CCCC[C@H](NC(=O)CN1CCC(NC(=O)[C@H](CCCCNC(=O)CN2CCN(CC(=O)O)CCN(CC(=O)O)CCN(CC(=O)O)CC2)NC(=O)[C@H](CCC(=O)O)NC(=O)CCCc2ccc(I)cc2)CC1)C(=O)N[C@H]1CC(=O)NCCCC[C@@H](C(N)=O)N(C)C(=O)[C@H](Cc2c[nH]c3ccccc23)NC(=O)[C@H](CCCNC(=N)N)N(C)C(=O)[C@@H](Cc2ccccc2)NC(=O)[C@H](Cc2c[nH]cn2)NC1=O [^177Lu-labeled CCZ01118, metal not drawn]"
measured_attribute = "tissue uptake at 4 h"
observed_value = "12.8 %ID/g"

[[record]]
molecule = "CCCC[C@H](NC(=O)CN1CCC(NC(=O)[C@H](CCCCNC(=O)CN2CCN(CC(=O)O)CCN(CC(=O)O)CCN(CC(=O)O)CC2)NC(=O)CNC(=O)CCCc2ccc(-c3ccc(C)cc3)cc2)CC1)C(=O)N[C@H]1CC(=O)NCCCC[C@@H](C(N)=O)N(C)C(=O)[C@H](Cc2c[nH]c3ccccc23)NC(=O)[C@H](CCCNC(=N)N)N(C)C(=O)[C@@H](Cc2ccccc2)NC(=O)[C@H](Cc2c[nH]cn2)NC1=O [^177Lu-labeled CCZ01158, metal not drawn]"
measured_attribute = "tissue uptake at 4 h"
observed_value = "11.3 %ID/g"


* * *

Assay: Biodistribution of 177Lu-labeled αMSH analogues in mice bearing B16F10 mouse melanoma
Assay type: in vivo, C57BL/6J mice
Settings: mouse, thyroid, iv, total radioactivity; 4 h p.i., C57BL/6J mice, B16F10 melanoma; read-out: Biodistribution, Thyroid
Procedure: The B16-F10 mouse melanoma cells were cultured and inoculated in mice as described in Example 1. For biodistribution studies, approximately 1-2 MBq of ^177Lu-labeled αMSH analogues via tail vein under anesthesia. At 1, 4, 24, and 120 h p.i., the mice were euthanized by CO2 inhalation. Organs/tissues were harvested and the radioactivity was measured as described in Example 1.
measured-attribute: tissue uptake at 4 h (%ID/g)

[[record]]
compound = "CCCC[C@H](NC(=O)CN1CCC(NC(=O)[C@H](CCCCNC(=O)CN2CCN(CC(=O)O)CCN(CC(=O)O)CCN(CC(=O)O)CC2)NC(=O)[C@H](CCC(=O)O)NC(=O)CCCc2ccc(I)cc2)CC1)C(=O)N[C@H]1CC(=O)NCCCC[C@@H](C(N)=O)N(C)C(=O)[C@H](Cc2c[nH]c3ccccc23)N(C)C(=O)[C@H](CCCNC(=N)N)N(C)C(=O)[C@@H](Cc2ccccc2)NC(=O)[C@H](Cc2c[nH]cn2)N(C)C1=O [^177Lu-labeled CCZ01088, metal not drawn]"
measured_attribute = "tissue uptake at 4 h"
unit_text = "%ID/g"
observed_value = 0.51

[[record]]
compound = "CCCC[C@H](NC(=O)CN1CCC(NC(=O)CN2CCN(CC(=O)O)CCN(CC(=O)O)CCN(CC(=O)O)CC2)CC1)C(=O)N[C@H]1CC(=O)NCCCC[C@@H](C(N)=O)NC(=O)[C@H](Cc2c[nH]c3ccccc23)NC(=O)[C@H](CCCNC(=N)N)NC(=O)[C@@H](Cc2ccccc2)NC(=O)[C@H](Cc2c[nH]cn2)NC1=O [^177Lu-labeled CCZ01048, metal not drawn, reference compound]"
measured_attribute = "tissue uptake at 4 h"
unit_text = "%ID/g"
observed_value = 2.16

[[record]]
compound = "CCCC[C@H](NC(=O)CN1CCC(NC(=O)[C@H](CCCCNC(=O)CN2CCN(CC(=O)O)CCN(CC(=O)O)CCN(CC(=O)O)CC2)NC(=O)[C@H](CCC(=O)O)NC(=O)CCCc2ccc(I)cc2)CC1)C(=O)N[C@H]1CC(=O)NCCCC[C@@H](C(N)=O)NC(=O)[C@H](Cc2c[nH]c3ccccc23)NC(=O)[C@H](CCCNC(=N)N)NC(=O)[C@@H](Cc2ccccc2)NC(=O)[C@H](Cc2c[nH]cn2)NC1=O [^177Lu-labeled CCZ01082, metal not drawn]"
measured_attribute = "tissue uptake at 4 h"
unit_text = "%ID/g"
observed_value = 3.86


The reported measurements were obtained from patent US11395857B2.
